Measured values drawn from ChEMBL document CHEMBL1141213 for this set.

# TARGET_OR_SYSTEM: Procathepsin L (Homo sapiens, UniProt P07711)
# Sequence (P07711 whole entry): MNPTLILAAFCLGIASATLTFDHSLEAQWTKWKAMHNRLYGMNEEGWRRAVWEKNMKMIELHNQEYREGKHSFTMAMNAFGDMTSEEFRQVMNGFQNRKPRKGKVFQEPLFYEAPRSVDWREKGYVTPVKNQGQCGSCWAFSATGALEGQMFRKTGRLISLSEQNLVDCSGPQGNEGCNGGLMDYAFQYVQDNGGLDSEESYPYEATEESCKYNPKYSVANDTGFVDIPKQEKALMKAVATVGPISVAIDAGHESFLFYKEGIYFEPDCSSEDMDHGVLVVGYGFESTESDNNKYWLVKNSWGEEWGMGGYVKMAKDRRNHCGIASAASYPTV
# EXPERIMENTAL_PROTOCOL: Inhibitory activity against human cathepsin L
Label yes (1) when IC50 < 6 µM; otherwise no (0).

N#CCNC(=O)[C@H](CC1CCCCC1)NC(=O)c1ccccc1; yes (1)
N#CCNC(=O)C1(NC(=O)c2ccc(N3CCOCC3)cc2)CCCCC1; no (0)
CN1CCN(c2nc(-c3ccc(C(=O)NC4(C(=O)NCC#N)CCCCC4)cc3)cs2)CC1; no (0)
CC(C)C[C@@H](C(=O)NCC#N)c1cccc(-c2ccc(N3CCNCC3)cc2)c1; yes (1)
N#CCNC(=O)C1(NC(=O)c2ccc(-c3csc(N4CCOCC4)n3)cc2)CCCCC1; no (0)
CCCN1CCN(c2ccc(C(=O)NC3(C(=O)NCC#N)CCCCC3)cc2)CC1 [BALICATIB]; yes (1)
